Origin of the recorded values: patent EP4356929A1

- protocol-details: physchem
- Type: physicochemical
- test-parameters: aqueous gamma-cyclodextrin 200 mg/ml
test-readout: solubility

Query: # query: solubility of entry "CO[C@@H]1[C@@H](O[C@@H]2O[C@H](C)[C@@H](O[C@H]3C[C@@](C)(O)[C@@H](OC(=O)CC(C)C)[C@H](C)O3)[C@H](N(C)C)[C@H]2O)[C@@H](CC=O)C[C@@H](C)[C@@H](O)/C=C/C=C/C[C@@H](C)OC(=O)C[C@H]1OC(C)=O"
Result: ≤ 18.9 mg/mL
